Cited source for all entries: patent US10941182

Here the recorded EC50 Human APJ Receptor is given for each entry.
- Measured target: T1, human APJ receptor (human, UniProt P35414 1-380)
- T1 sequence (looked up): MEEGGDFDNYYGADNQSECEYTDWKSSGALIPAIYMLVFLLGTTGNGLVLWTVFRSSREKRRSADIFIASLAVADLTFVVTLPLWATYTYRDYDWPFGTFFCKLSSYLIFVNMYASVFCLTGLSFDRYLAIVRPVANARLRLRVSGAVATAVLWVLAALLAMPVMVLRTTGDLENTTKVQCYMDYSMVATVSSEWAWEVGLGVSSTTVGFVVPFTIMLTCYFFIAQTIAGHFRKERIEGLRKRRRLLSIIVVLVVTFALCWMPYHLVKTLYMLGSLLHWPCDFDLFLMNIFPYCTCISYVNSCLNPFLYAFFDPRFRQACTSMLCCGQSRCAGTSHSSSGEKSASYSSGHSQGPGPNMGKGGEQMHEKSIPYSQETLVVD
- Protocol text: cell-based or functional assay
Non-standard residues stand in square brackets, D forms with d. No end group written: not given here. PEG12 = NCCOCCOCCOCCOCCOCCOCCOCCOCCOCCOCCOCCOCCC(=O)O; Oic = O=C(O)[C@@H]1C[C@@H]2CCCC[C@@H]2N1; Phe(4-Cl) = N[C@@H](Cc1ccc(Cl)cc1)C(=O)O; dPhe(4-Cl) = N[C@H](Cc1ccc(Cl)cc1)C(=O)O; d2Nal = N[C@H](Cc1ccc2ccccc2c1)C(=O)O; NMeR = CN[C@@H](CCCNC(=N)N)C(=O)O; hArg = N=C(N)NCCCC[C@H](N)C(=O)O; Cha = N[C@@H](CC1CCCCC1)C(=O)O; β3hP = O=C(O)C[C@@H]1CCCN1; Nle = CCCC[C@H](N)C(=O)O; Orn = NCCC[C@H](N)C(=O)O; Sar = CNCC(=O)O
Result type: EC50 Human APJ Receptor (pM)

>  <Binder>
[Orn]F[hArg][hArg]Q[hArg][β3hP][hArg][Cha]SHKG[Oic][Nle]P[Phe(4-Cl)] [apelin polypeptide SEQ ID NO: 694]

>  <Readout number>
458

$$$$
>  <Binder>
Ac-[hArg]Q[dR]P[NMeR][Cha]SHKG[Oic][Nle]P[dPhe(4-Cl)]-OH [apelin polypeptide SEQ ID NO: 24]

>  <Readout number>
7870

$$$$
>  <Binder>
[PEG12]KFRRQRP[hArg][Cha]SHKG[Oic][Nle]P[Phe(4-Cl)]-OH (also: PEG-apelin peptide conjugate) [apelin polypeptide SEQ ID NO: 102]

>  <Readout number>
83

$$$$
>  <Binder>
[Orn]F[hArg][hArg]Q[hArg]P[hArg][Cha]SHKG[Sar][Nle]P[Phe(4-Cl)] [apelin polypeptide SEQ ID NO: 683]

>  <Readout number>
379

$$$$
>  <Binder>
[Orn]F[hArg][hArg]Q[hArg]P[hArg][Cha]SHKG[Oic][Nle][d2Nal] [apelin polypeptide SEQ ID NO: 713]

>  <Readout number>
1540

$$$$
